- procedure_text: Microsomal stability
- Format: in vitro ADME
- particulars: mouse liver microsomes; read-out: intrinsic clearance
readout_name: microsomal CLint
Please answer using a numeric value trailed by its unit.

Incoming: # input compound: CC(C)[C@H](CCCNC(=O)Nc1ccc(C(C)(C)C)cc1)N[C@H]1C[C@@H](n2cnc3c(N)ncnc32)[C@H](O)[C@@H]1O ; wanted: its microsomal CLint
Outgoing: 121 µL/min/mg
